Values from ChEMBL document CHEMBL5244269

Test: Oral bioavailability in Han Wistar rat at 2 mg/kg
Assay type: ADME, organism-based
Settings: in vivo
outcomeMeasure: bioavailability

Req: Look up bioavailability for this molecule: Cc1ncc(-c2nc3c(OC4(C)CC4)nc(Nc4cnn(C5CCN(C)CC5)c4)nc3cc2F)cn1
Resp: 55%

====

A short record of IC50 observed with Receptor-type tyrosine-protein kinase FLT3 (Homo sapiens) follows.
Sequence (P36888 whole entry): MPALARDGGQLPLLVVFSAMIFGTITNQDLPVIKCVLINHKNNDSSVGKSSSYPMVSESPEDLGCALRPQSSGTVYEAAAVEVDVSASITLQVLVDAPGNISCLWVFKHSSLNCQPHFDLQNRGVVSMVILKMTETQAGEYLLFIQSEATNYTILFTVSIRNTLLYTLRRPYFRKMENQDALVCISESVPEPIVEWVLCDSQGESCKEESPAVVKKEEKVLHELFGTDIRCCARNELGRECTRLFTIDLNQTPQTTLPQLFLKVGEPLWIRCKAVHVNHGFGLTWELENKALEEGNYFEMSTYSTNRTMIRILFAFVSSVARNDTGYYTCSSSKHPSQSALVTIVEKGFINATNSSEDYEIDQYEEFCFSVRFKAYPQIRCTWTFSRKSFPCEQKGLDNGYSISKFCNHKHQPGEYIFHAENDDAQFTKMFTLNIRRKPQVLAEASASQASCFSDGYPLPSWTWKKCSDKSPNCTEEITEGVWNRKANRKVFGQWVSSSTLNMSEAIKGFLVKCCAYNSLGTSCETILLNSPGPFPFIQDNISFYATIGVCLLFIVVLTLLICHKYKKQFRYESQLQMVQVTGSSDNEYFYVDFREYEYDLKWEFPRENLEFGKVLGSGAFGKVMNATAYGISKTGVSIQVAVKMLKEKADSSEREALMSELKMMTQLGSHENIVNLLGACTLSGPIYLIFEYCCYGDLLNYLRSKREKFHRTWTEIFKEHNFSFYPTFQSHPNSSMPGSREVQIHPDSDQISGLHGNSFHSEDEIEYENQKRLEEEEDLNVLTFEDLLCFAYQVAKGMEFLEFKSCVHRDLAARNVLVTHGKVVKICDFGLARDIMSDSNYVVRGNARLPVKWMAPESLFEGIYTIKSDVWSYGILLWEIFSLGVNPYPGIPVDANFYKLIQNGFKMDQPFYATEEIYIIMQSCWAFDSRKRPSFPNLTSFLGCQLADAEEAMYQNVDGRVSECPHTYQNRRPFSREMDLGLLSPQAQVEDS
State the answer as a number, implicitly in nM.

sampleSmiles: Cc1ncc(-c2nc3c(NC(C)C)nc(Nc4cnn(C5CC6(C5)CN(C)C6)c4)nc3cc2F)cn1
outcomeMeasure: IC50
unitsOfMeasure: nM
valueReported: 1500

Req: I would be grateful if you could share the reported IC50 for CN1CCC(n2cc(Nc3nc(OC4(C)CC4)c4nc(-c5cnn(C)c5)ccc4n3)cn2)CC1 .
Resp: 170

====

Assay: Terminal half life in Han Wistar rat at 1 mg/kg, iv
Assay type: ADME, organism-based
Details: in vivo, read-out: beta t1/2 (converted)
outcomeMeasure: half-life
# do not omit the unit; it follows the number

Req: I am curious: what half-life value has been reported for Cc1ncc(-c2nc3c(OC4(C)CC4)nc(Nc4cnn(C5CCN(C)CC5)c4)nc3cc2F)cn1 ?
Resp: 5.2 h

====

The entries below come with measured logD values attached.
Test: Lipophilicity, LogD at pH 7.4 of the compound by shake flask method
Format: physicochemical
Conditions: buffer
Answer with a number only.

Req: Any idea what logD was measured for CC(=O)N1CCC(n2cc(Nc3nc(OC4CCOCC4)c4nc(CC#N)ccc4n3)cn2)CC1 ?
Resp: 1.2

====

Assay: Terminal half life in cynomolgus monkey at 1 mg/kg, iv
Format: ADME, organism-based, Macaca fascicularis
Conditions: in vivo, read-out: beta t1/2 (converted)
outcomeMeasure: half-life (h)
Kindly answer with a numeric value in h, unit omitted.

Req: // query half-life value for entry Cc1ncc(-c2nc3c(OC4(C)CC4)nc(Nc4cnn(C5CCN(C)CC5)c4)nc3cc2F)cn1
Resp: 1.4

====

Biological target: Phosphatidylinositol 4,5-bisphosphate 3-kinase catalytic subunit delta isoform (Homo sapiens)
Sequence (O00329 whole entry, canonical isoform): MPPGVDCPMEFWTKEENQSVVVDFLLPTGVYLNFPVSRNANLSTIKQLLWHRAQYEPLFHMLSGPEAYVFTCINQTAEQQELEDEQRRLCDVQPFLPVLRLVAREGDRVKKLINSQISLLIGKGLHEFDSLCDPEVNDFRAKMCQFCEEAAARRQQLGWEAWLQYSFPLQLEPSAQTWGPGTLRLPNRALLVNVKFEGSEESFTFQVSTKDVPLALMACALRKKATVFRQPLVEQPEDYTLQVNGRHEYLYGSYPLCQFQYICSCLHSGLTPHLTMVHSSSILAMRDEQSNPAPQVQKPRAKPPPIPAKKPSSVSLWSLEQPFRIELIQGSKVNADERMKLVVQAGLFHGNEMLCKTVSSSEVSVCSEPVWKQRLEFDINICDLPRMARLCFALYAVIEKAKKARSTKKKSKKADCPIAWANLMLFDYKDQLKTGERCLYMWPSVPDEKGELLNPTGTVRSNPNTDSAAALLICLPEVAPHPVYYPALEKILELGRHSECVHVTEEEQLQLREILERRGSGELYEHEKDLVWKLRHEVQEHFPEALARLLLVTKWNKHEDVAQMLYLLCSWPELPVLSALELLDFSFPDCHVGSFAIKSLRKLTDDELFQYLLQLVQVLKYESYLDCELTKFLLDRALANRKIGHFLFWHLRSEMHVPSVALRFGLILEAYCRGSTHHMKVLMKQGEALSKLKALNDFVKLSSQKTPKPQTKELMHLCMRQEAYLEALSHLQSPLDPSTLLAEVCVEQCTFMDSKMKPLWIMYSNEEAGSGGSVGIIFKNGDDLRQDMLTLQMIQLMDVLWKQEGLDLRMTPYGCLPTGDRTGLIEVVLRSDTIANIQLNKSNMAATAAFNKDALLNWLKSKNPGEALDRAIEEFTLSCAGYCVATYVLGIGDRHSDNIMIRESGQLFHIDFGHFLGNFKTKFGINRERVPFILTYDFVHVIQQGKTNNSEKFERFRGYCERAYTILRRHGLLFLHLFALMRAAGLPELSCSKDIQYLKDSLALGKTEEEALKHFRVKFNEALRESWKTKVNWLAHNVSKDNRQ
Experiment: Inhibition of PI3Kdelta (unknown origin) in presence of […] uM ATP
outcomeMeasure: IC50
Answer with the number, then the unit.

Known results for compounds:
sampleSmiles: Cc1ncc(-c2nc3c(OC4(C)CC4)nc(Nc4cnn(C5CCN(C)CC5)c4)nc3cc2F)cn1
valueReported: 53 nM

sampleSmiles: CN1CCC(n2cc(Nc3nc(OC4(C)CC4)c4nc(-c5cncnc5)ccc4n3)cn2)CC1
valueReported: 18 nM

Then this compound:
Req: I have this compound here, Cc1ncc(-c2nc3c(NC(C)C)nc(Nc4cnn(C5CC6(C5)CN(C)C6)c4)nc3cc2F)cn1 , and I need its recorded IC50.
Resp: 230 nM

====

Assay: Metabolic stability in human hepatocytes assessed as intrinsic clearance measured per 10^6 cells
Assay type: ADME, cell-based, Hepatocyte
Details: read-out: CLH
outcomeMeasure: hepatocyte CLint (µL/min/1e6 cells)
Provide only the numeric value, understood in µL/min/1e6 cells.

sampleSmiles: CC(=O)N1CCC(n2cc(Nc3nc(OC4CCOCC4)c4nc(C)ccc4n3)cn2)CC1
unitsOfMeasure: µL/min/1e6 cells
valueReported: 4.6

Req: What value of measured hepatocyte CLint is listed for Cc1nc2c(OC3(C)CC3)nc(Nc3cnn(C4CC5(C4)CN(C)C5)c3)nc2cc1F ?
Resp: 4

====

Assay: Volume of distribution at steady state in cynomolgus monkey at 1 mg/kg, iv
Assay type: ADME, organism-based, Macaca fascicularis
Conditions: in vivo, read-out: Vdss
outcomeMeasure: Vd (L/kg)
Response body: numeric value in L/kg, unit text excluded.

Req: Fill in: Vd of Cc1ncc(-c2nc3c(OC4(C)CC4)nc(Nc4cnn(C5CCN(C)CC5)c4)nc3cc2F)cn1 is ___
Resp: 8.6

====

Each entry below carries its reported pIC50.
Molecular target: UniProt Q06187
Sequence (Q06187 whole entry): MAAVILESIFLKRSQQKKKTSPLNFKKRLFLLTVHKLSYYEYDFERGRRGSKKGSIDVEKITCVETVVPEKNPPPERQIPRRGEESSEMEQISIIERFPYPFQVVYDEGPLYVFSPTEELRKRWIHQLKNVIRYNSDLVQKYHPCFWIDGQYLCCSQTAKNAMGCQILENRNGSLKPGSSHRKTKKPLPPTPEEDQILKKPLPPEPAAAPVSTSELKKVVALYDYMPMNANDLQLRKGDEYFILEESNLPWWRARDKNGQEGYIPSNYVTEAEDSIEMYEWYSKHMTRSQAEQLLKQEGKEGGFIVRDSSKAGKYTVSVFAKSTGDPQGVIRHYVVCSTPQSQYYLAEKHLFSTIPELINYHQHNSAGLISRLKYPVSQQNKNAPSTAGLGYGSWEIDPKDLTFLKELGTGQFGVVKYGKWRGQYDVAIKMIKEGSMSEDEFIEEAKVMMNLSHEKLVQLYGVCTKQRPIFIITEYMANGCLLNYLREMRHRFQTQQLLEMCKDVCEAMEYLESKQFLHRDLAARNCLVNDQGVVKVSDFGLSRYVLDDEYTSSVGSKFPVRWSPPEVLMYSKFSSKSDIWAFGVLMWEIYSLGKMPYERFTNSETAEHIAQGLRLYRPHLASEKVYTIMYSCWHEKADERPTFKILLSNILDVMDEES
pIC50: −log10 of the molar value.

Req: I would be grateful if you could share the reported pIC50 for Cc1ncc(-c2nc3c(NC(C)C)nc(Nc4cnn(C5CC6(C5)CN(C)C6)c4)nc3cc2F)cn1 .
Resp: < 5.00

Req: Repeat for the following molecule: Cc1ncc(-c2nc3c(OC4(C)CC4)nc(Nc4cnn(C5CCN(C)CC5)c4)nc3cc2F)cn1
Resp: < 5.10

====

Assay: Metabolic stability in rat liver microsomes assessed as intrinsic clearance
Type: ADME, Microsome
Details: read-out: CLH
outcomeMeasure: microsomal CLint (µL/min/mg)
Numeric only. Scale: µL/min/mg

Req: What does the data say about its microsomal CLint? Entry: Cc1ncc(-c2nc3c(OC4(C)CC4)nc(Nc4cnn(C5CCN(C)CC5)c4)nc3cc2F)cn1
Resp: 16

====

pIC50 values, listed per item
Molecular target: NT-3 growth factor receptor (Homo sapiens, UniProt Q16288)
Sequence (Q16288 whole entry): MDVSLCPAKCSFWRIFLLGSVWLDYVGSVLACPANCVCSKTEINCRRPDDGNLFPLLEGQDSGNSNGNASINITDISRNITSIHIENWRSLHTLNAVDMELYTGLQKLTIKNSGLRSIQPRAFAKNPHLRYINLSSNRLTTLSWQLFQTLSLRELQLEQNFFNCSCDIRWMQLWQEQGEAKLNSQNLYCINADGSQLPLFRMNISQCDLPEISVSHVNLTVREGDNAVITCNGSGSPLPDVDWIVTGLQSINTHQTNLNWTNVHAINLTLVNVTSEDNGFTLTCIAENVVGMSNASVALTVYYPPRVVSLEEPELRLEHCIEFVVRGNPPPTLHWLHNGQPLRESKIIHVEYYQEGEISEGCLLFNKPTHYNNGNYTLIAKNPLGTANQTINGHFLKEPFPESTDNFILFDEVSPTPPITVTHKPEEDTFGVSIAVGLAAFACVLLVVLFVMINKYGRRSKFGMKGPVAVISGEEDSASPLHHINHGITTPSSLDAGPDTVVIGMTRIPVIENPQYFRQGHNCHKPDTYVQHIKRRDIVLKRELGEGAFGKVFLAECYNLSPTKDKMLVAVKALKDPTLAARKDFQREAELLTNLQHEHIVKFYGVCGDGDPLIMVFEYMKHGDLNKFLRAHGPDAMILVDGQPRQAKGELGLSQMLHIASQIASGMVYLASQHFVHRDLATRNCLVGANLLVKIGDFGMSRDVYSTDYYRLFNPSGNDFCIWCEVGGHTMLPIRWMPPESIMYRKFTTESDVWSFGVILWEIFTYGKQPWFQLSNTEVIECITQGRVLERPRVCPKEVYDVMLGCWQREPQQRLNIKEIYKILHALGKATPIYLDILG
Interpret pIC50 as the negative base-10 log of the concentration measured in mol/L.

sampleSmiles: Cc1ncc(-c2nc3c(OC4(C)CC4)nc(Nc4cnn(C5CCN(C)CC5)c4)nc3cc2F)cn1
valueReported: 6.57

// moving on: another record for pIC50
Req: Look at this compound and give its reported pIC50. Cc1ncc(-c2nc3c(NC(C)C)nc(Nc4cnn(C5CC6(C5)CN(C)C6)c4)nc3cc2F)cn1
Resp: 6.24

====

Target: Interleukin-1 receptor-associated kinase 4 (Homo sapiens, UniProt Q9NWZ3)
Sequence (Q9NWZ3 whole entry): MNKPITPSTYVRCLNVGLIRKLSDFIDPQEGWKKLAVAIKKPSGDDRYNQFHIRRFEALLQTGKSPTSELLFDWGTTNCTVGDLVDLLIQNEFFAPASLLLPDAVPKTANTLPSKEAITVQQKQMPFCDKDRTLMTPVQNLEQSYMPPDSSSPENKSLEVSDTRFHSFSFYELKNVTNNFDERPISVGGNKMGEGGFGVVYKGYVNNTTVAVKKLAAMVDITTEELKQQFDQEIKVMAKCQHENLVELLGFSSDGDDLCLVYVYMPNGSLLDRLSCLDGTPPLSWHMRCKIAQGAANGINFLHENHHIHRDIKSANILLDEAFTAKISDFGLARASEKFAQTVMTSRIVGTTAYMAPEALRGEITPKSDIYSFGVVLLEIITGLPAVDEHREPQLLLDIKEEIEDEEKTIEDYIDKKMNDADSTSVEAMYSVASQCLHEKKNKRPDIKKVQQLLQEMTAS
Assay: Inhibition of IRAK4 (unknown origin) phosphorylation by cell based assay
outcomeMeasure: IC50 (nM)
Write it as a number; the unit nM goes unstated.

Req: Would you kindly share the measured IC50 for Cn1cc(Nc2nc(NC3COC3)c3nc(CC#N)ccc3n2)cn1 ?
Resp: 9400

Req: CN1CCC(n2cc(Nc3nc(OC4(C)CC4)c4nc(-c5cn(C)cn5)ccc4n3)cn2)CC1 , same question.
Resp: 6800

Req: Quick one: Cn1cc(Nc2nc(NC3CCOCC3)c3nc(CC#N)ccc3n2)cn1
Resp: 2100

Req: What would you report for Cc1nc2c(OC3(C)CC3)nc(Nc3cnn(C4CC5(C4)CN(C)C5)c3)nc2cc1F ?
Resp: 200

Req: Request: CN1CCC(n2cc(Nc3nc(OC4(C)CC4)c4nc(-c5cn(C)nn5)ccc4n3)cn2)CC1
Resp: 510

Req: Would you mind doing Cc1ncc(-c2nc3c(NC4(C)CC4)nc(Nc4cnn(C5CC6(C5)CN(C)C6)c4)nc3cc2F)cn1 as well?
Resp: 54

Req: Input CN1CCC(n2cc(Nc3nc(OC4(C)CC4)c4nc(-c5ccn(C)n5)ccc4n3)cn2)CC1
Resp: 21000

Req: Note, next up: CN1CCC(n2cc(Nc3nc(OC4(C)CC4)c4nc(-c5cccnc5)ccc4n3)cn2)CC1
Resp: 120

Req: Next up: CN1CCC(n2cc(Nc3nc(OC4(C)CC4)c4nc(C5CC5)ccc4n3)cn2)CC1
Resp: 38

====

Assay: Lipophilicity, LogD at pH 7.4 of the compound by shake flask method
Type: physicochemical
Conditions: buffer
outcomeMeasure: logD
Please state the value as a number alone, without comment.

Req: What value of logD has been reported for the following compound? Cn1cc(Nc2nc(NC3CC3)c3nc(CC#N)ccc3n2)cn1
Resp: 2.1

Req: Same read-out for Cn1cc(Nc2nc(N[C@H]3CCOC3)c3nc(CC#N)ccc3n2)cn1 ?
Resp: 1.6

Req: Now the same for CN1CCC(n2cc(Nc3nc(OC4(C)CC4)c4nc(-c5ccn(C)n5)ccc4n3)cn2)CC1
Resp: 2.1

Req: One more compound: Cc1ncc(-c2ccc3nc(Nc4cnn(C5CCN(C)CC5)c4)nc(OC4(C)CC4)c3n2)cn1
Resp: 2.2

Req: Consider next the compound CN1CCC(n2cc(Nc3nc(OC4(C)CC4)c4nc(C5CC5)ccc4n3)cn2)CC1 in the same way.
Resp: 2.8

Req: Follow-up entry: Cc1ncc(-c2nc3c(NC4(C)CC4)nc(Nc4cnn(C5CC6(C5)CN(C)C6)c4)nc3cc2F)cn1
Resp: 2.1

Req: Please answer likewise for Cc1ncc(-c2nc3c(NC(C)C)nc(Nc4cnn(C5CC6(C5)CN(C)C6)c4)nc3cc2F)cn1
Resp: 1.9

Req: Same question, Cc1ncc(-c2nc3c(OC4(C)CC4)nc(Nc4cnn(C5CC6(C5)CN(C)C6)c4)nc3cc2F)cn1 this time
Resp: 1.4

Req: What would you report for Cn1cc(Nc2nc(NC3COC3)c3nc(CC#N)ccc3n2)cn1 ?
Resp: 1.2

Req: Consider next the compound Cc1ccc2nc(Nc3cnn(C4CCN(C)CC4)c3)nc(OC3(C)CC3)c2n1 in the same way.
Resp: 1.8

====

Experiment: Metabolic stability in rat hepatocytes assessed as intrinsic clearance measured per 10^6 cells
Type: ADME, cell-based, Hepatocyte
Details: read-out: CLH
outcomeMeasure: hepatocyte CLint (µL/min/1e6 cells)
Write the value in µL/min/1e6 cells as a bare number.

Req: Which hepatocyte CLint value belongs to Cc1ncc(-c2nc3c(OC4(C)CC4)nc(Nc4cnn(C5CCN(C)CC5)c4)nc3cc2F)cn1 ?
Resp: 5.6
